Recorded values, source PubChem BioAssay (EPA / NIEHS).

test system: rabbit Platelet Activating Factor Receptor (PAF), gene 100354046; experiment: NVS_GPCR_rabPAF: NovaScreen (NVS) G Protein-Coupled Receptor Assay for rabbit Platelet Activating Factor Receptor (PAF) (AID 2283287)
Results filed as inconclusive are left out. Active and inactive are the calls of the source. How the source made its calls: active means hit-call score of the fitted dose curve at least 0.9, where 1 is the maximum; inconclusive means response in the unintended direction; inactive means score below 0.9.
Give your call using only these classes: active, inactive

Request: Which result was noted for this compound in the test: O=S(=O)(O)C(F)(F)C(F)(F)C(F)(F)C(F)(F)C(F)(F)C(F)(F)C(F)(F)C(F)(F)F
Result: inactive

====

biological target: Oxysterols receptor LXR-alpha (Homo sapiens); assay: ATG_LXRa_TRANS: Attagene TRANS-FACTORIAL HepG2 Assay for human Liver X Receptor alpha (LXRa) (AID 2282980); conditions: HepG2 Attagene TRANS reporter, LXRa transactivation
Results filed as inconclusive are left out. Active and inactive are the calls of the source. The calls were made as follows: active = hit-call score of the fitted dose curve at least 0.9, where 1 is the maximum; inconclusive = response in the unintended direction; inactive = score below 0.9.
Write down the outcome that applies. Available outcomes: true (1) (active), false (0) (inactive)

Reference set, count: 3
COMPOUND | CATEGORY_LABEL
O=C(Nc1ccccc1)Nc1cnns1 | false (0)
OCCOc1ccccc1 | false (0)
COP(=S)(OC)Oc1ccc(SC)c(C)c1 | true (1)

Request: For COC(=O)c1ccccc1S(=O)(=O)NC(=O)Nc1nc(C)nc(OC)n1 , what call appears in the results of this test?
Result: false (0)

Request: Proceed to O=C(NC(=O)c1c(F)cccc1F)Nc1ccc(OC(F)(F)C(F)OC(F)(F)F)c(Cl)c1 (stereo unspecified)
Result: false (0)

Request: Also, N#Cc1c(Cl)c(Cl)c(Cl)c(C#N)c1Cl please.
Result: false (0)
